Measured Phage library screen NGS readout, BLANK by item
assay.system: RNF31 PUB domain (Homo sapiens, UniProt Q96EP0)
Construct: MBP-TEV (N, cleaved yes); made in house; host or cells: E. coli BL21 (DE3) pLysS
Sequence (Q96EP0 1-179): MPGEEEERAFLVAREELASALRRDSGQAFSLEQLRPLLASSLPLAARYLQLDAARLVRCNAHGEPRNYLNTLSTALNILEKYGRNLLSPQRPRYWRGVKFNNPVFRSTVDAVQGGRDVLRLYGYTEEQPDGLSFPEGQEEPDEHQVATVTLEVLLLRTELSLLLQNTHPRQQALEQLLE
test.method.notes: Phage Library Screening with NGS, RNF31 PUB domain
Format: binding
condition.info: clusters C41-C45; BLANK screen, column 4 of 5
Bridge positions count the residues as written; N and C are the ends.

1) DPAIVQCAWAALYCDMQ (Ac-DPAIVQCAWAALYCDMQ-NH2; bridge 7-14; also: Cys-Cys staple, linker not named) | 0
2) DPAWTDCDWAALYCEFQ | 1
3) DPAYDLCLNAAVACTYV | 0

query: Return value of Phage library screen NGS readout, BLANK for input DPAWNDCLYAAETCISW , no commentary.
result: 0

====

assay.system: MDM2 (Homo sapiens, UniProt Q00987)
Construct: made in house
Sequence (Q00987 25-109): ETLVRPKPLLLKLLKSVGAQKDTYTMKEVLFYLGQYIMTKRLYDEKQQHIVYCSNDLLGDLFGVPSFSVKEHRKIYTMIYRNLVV
test.method.notes: Naive Library Presenter Screening (phage, NGS), MDM2
Type: binding
condition.info: MDM2 target concentration 1000 nM, second column
Numbered stars: 1 amine (or outer) side, 2 acyl side, 3 side chain; on linkers, the order of the positions; unused ones are H or OH. Bridge positions count the residues as written; N and C are the ends. Ends that are not written are not given here. Phenylene(1,4-NHCOCH2)2 = O=C(C[*:1])Nc1ccc(NC(=O)C[*:2])cc1
Measured interaction data at Target Concentration 1000 by item
Reply: number alone, nothing else.

Worked set:
1) DPADNRCFQAAWDCAFW (linker 7-14 via Phenylene(1,4-NHCOCH2)2 (inferred)) | 23
2) DPAENECFTAAWDCMFF (linker 7-14 via Phenylene(1,4-NHCOCH2)2 (inferred)) | 40
3) DPASEACFQAAWDCVSW (DPASEACFQAAWDCVSW-NH2; linker 7-14 via Phenylene(1,4-NHCOCH2)2 (inferred)) | 447

# input for lookup
query: Return value of interaction data at Target Concentration 1000 for input DPATQQCFQAAWDCQFM (linker 7-14 via Phenylene(1,4-NHCOCH2)2 (inferred)) , no commentary.
result: 679

====

assay.system: beta-catenin (Homo sapiens, UniProt P35222)
Construct: made in house; host or cells: E. coli BL21 (DE3) pLysS
Sequence (P35222 134-665): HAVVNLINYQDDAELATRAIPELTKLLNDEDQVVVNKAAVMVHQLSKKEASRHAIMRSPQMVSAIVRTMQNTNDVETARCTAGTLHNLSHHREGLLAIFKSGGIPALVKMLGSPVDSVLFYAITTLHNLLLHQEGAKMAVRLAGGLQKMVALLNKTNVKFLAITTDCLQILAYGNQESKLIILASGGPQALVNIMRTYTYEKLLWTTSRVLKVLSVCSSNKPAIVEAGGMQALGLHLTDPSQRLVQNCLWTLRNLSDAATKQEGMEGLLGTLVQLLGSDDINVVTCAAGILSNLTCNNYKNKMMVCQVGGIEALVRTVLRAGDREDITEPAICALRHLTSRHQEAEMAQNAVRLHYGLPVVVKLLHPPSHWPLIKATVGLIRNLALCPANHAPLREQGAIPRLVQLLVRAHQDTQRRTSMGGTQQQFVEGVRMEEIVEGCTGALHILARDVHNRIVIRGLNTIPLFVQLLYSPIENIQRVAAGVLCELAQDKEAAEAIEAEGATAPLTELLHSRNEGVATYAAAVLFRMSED
test.method.notes: Phage Library Screening with NGS, beta-catenin
Format: binding
condition.info: beta-catenin target concentration 1000; first 1000 column
observed.property: Target Concentration 1000 (phage screen NGS readout)
Reply: number alone, nothing else.

Worked set:
1. DPAALSCYQAAFHCQYY | 14
2. DPAHWRCEHAALLCWYN | 140
3. DPAMIQCQWAAEHCELI | 19
4. DPAILNCHVAAWNCHSF | 4
5. DPASWDCDHAALLCTLD | 283
6. DPAEAICILAAHECWWD | 322
7. DPAYTYCQWAAEHCSLL | 115
8. DPAILECHMAAFECYIE | 86
9. DPAVIQCYQAAFHCDYQ | 12
10. DPAEADCMMAAHICSNI | 46

query: Report the value of Target Concentration 1000 (phage screen NGS readout) obtained on beta-catenin (Homo sapiens, UniProt P35222) for DPAMWICEHAALNCEIR .
result: 145

query: Report the value of Target Concentration 1000 (phage screen NGS readout) obtained on beta-catenin (Homo sapiens, UniProt P35222) for DPAHWVCEHAALNCDQN .
result: 104

query: Report the value of Target Concentration 1000 (phage screen NGS readout) obtained on beta-catenin (Homo sapiens, UniProt P35222) for DPAEHDCMLAAHFCRHF .
result: 337

query: Report the value of Target Concentration 1000 (phage screen NGS readout) obtained on beta-catenin (Homo sapiens, UniProt P35222) for DPAYWVCEHAALLCTDY .
result: 283

query: Report the value of Target Concentration 1000 (phage screen NGS readout) obtained on beta-catenin (Homo sapiens, UniProt P35222) for DPAVFMCYEAAFECQYF .
result: 2

query: Report the value of Target Concentration 1000 (phage screen NGS readout) obtained on beta-catenin (Homo sapiens, UniProt P35222) for DPAELACEWAAIHCELV .
result: 69

query: Report the value of Target Concentration 1000 (phage screen NGS readout) obtained on beta-catenin (Homo sapiens, UniProt P35222) for DPAIIHCYQAAFQCQYM .
result: 7

====

assay.system: WWP2^HECT (Homo sapiens, UniProt O00308)
Construct: GST-TEV (N, cleaved yes); made in house; host or cells: Escherichia coli BL21 (DE3)
Sequence (O00308 492-865): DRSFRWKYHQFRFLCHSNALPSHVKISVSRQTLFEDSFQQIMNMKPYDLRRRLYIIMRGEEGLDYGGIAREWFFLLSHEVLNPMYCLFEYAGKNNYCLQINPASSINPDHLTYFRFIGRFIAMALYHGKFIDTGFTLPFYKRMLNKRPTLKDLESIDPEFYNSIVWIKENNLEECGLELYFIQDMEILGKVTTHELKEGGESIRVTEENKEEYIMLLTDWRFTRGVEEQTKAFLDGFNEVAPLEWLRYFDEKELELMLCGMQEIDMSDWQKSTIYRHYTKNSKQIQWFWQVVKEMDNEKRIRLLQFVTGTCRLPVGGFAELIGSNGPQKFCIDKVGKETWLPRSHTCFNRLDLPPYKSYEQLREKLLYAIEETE
test.method.notes: Naive Library Presenter Screening (phage, NGS), WWP2^HECT
Type: binding
condition.info: WWP2 target concentration 1000 nM, first column
Numbered stars: 1 amine (or outer) side, 2 acyl side, 3 side chain; on linkers, the order of the positions; unused ones are H or OH. Bridge positions count the residues as written; N and C are the ends. Ends that are not written are not given here. Phenylene(1,4-NHCOCH2)2 = O=C(C[*:1])Nc1ccc(NC(=O)C[*:2])cc1
Measured interaction data at Target Concentration 1000 by item

Worked set:
1) DPAVWDCRYAAWDCYTN (linker 7-14 via Phenylene(1,4-NHCOCH2)2 (inferred); not fully specified (C-terminus)) | 33
2) DPAYHHCLAAADLCSFF | 101
3) DPALWECMTAADWCMFM (linker 7-14 via Phenylene(1,4-NHCOCH2)2; not fully specified (C-terminus)) | 28
4) DPALIHCRAAADTCAFW (linker 7-14 via Phenylene(1,4-NHCOCH2)2; not fully specified (C-terminus)) | 419
5) DPAVWECRWAAFQCWLD (linker 7-14 via Phenylene(1,4-NHCOCH2)2 (inferred); not fully specified (C-terminus)) | 97

query: Return value of interaction data at Target Concentration 1000 for input DPAAWDCRYAALACYIH (linker 7-14 via Phenylene(1,4-NHCOCH2)2 (inferred)) , no commentary.
result: 66

query: Return value of interaction data at Target Concentration 1000 for input DPALLHCMAAAQTCSFF (linker 7-14 via Phenylene(1,4-NHCOCH2)2; not fully specified (C-terminus)) , no commentary.
result: 59

query: Return value of interaction data at Target Concentration 1000 for input DPAANYCEAAADTCQFF (linker 7-14 via Phenylene(1,4-NHCOCH2)2 (inferred)) , no commentary.
result: 283

query: Return value of interaction data at Target Concentration 1000 for input DPATYYCEAAAETCRFF (linker 7-14 via Phenylene(1,4-NHCOCH2)2 (inferred); not fully specified (C-terminus)) , no commentary.
result: 78

query: Return value of interaction data at Target Concentration 1000 for input DPALWHCLAAAETCAMF (linker 7-14 via Phenylene(1,4-NHCOCH2)2; not fully specified (C-terminus)) , no commentary.
result: 47

query: Return value of interaction data at Target Concentration 1000 for input DPAIHSCYAAAETCQFF (linker 7-14 via Phenylene(1,4-NHCOCH2)2 (inferred)) , no commentary.
result: 127

query: Return value of interaction data at Target Concentration 1000 for input DPAIWDCLYAATNCYIN (linker 7-14 via Phenylene(1,4-NHCOCH2)2; not fully specified (C-terminus)) , no commentary.
result: 12

query: Return value of interaction data at Target Concentration 1000 for input DPATWDCQQAAHHCWVL (linker 7-14 via Phenylene(1,4-NHCOCH2)2 (inferred); not fully specified (C-terminus)) , no commentary.
result: 35

query: Return value of interaction data at Target Concentration 1000 for input DPAIQNCRSAADVCMFF (linker 7-14 via Phenylene(1,4-NHCOCH2)2; not fully specified (C-terminus)) , no commentary.
result: 117

query: Return value of interaction data at Target Concentration 1000 for input DPALWECRNAAWQCWMH (linker 7-14 via Phenylene(1,4-NHCOCH2)2; not fully specified (C-terminus)) , no commentary.
result: 35

query: Return value of interaction data at Target Concentration 1000 for input DPATWDCRNAAWLCLLN (linker 7-14 via Phenylene(1,4-NHCOCH2)2 (inferred); not fully specified (C-terminus)) , no commentary.
result: 12
